# Tested on: Rattus norvegicus
# experiment: Total plasma concentration in Sprague-Dawley rat at 1 mg/kg, po
# Format: ADME, organism-based
# Design: dose 1 mg/kg, route oral
# measurementContext: in vivo
valueType: concentration (nM)

>>> print(df.to_string())
                            molecularstring             target  unitdescriptor  val
0  C[C@@H](C1CC1)n1cc(Cl)nc(Nc2c(Cl)cc(OC(F)F)cc2Cl)c1=O  Rattus norvegicus              nM   80

###

# Test system: Rattus norvegicus
# experiment: Total plasma concentration in Sprague-Dawley rat at 10 mg/kg, po
# Format: ADME, organism-based
# Set-up: dose 10 mg/kg, route oral
# measurementContext: in vivo
valueType: concentration (nM)

                            molecularstring             target   val
0  Cc1cc(C#N)cc(Cl)c1Nc1nc(Cl)cn([C@H](C)C2CC2)c1=O  Rattus norvegicus   250
1  C[C@@H](C1CC1)n1cc(Cl)nc(Nc2c(Cl)cc(OC(F)F)cc2Cl)c1=O  Rattus norvegicus   790
2  C[C@H](C1CC1)n1cc(Cl)nc(Nc2c(Cl)cc(C(F)(F)F)cc2Cl)c1=O  Rattus norvegicus  2000
3  C[C@H](C1CC1)n1cc(Cl)nc(Nc2c(Cl)cc(C#N)cc2Cl)c1=O  Rattus norvegicus   120
4  C[C@H](C1CC1)n1cc(C#N)nc(Nc2c(Cl)cc(C(F)(F)F)cc2Cl)c1=O  Rattus norvegicus  1400

###

// reported AUC for each item listed
# experiment: AUC in Sprague-Dawley rat at 10 mg/kg, po dosed as aqueous solution of oleoyl macrogolglyceride/DMAC/polysorbate 80, 85:10:5 within 0.25 to 24 hrs
# Type: ADME, organism-based
# Parameters: time 0.25-24 hr, dose 10 mg/kg, route oral
# measurementContext: plasma
valueType: AUC

>>> df
                            molecularstring  valuetype       val
0  C[C@H](C1CC1)n1cc(C#N)nc(Nc2c(Cl)cc(OC(F)F)cc2Cl)c1=O        AUC   15 µM·h
1  C[C@@H](C1CC1)n1cc(Cl)nc(Nc2c(Cl)cc(OC(F)F)cc2Cl)c1=O        AUC   12 µM·h
2  Cc1cn([C@H](C)C2CC2)c(=O)c(Nc2c(C)cc(Cl)cc2C)n1        AUC  1.7 µM·h

###

// reported Cp(f) for each item listed
# Test system: Rattus norvegicus
# experiment: Plasma free concentration in Sprague-Dawley rat at 10 mg/kg, po
# Type: ADME, organism-based
# Design: dose 10 mg/kg, route oral
# measurementContext: in vivo
valueType: Cp(f) (nM)

>>> print(df.to_string())
                            molecularstring  valuetype  unitdescriptor  val
0  Cc1cc(C#N)cc(Cl)c1Nc1nc(Cl)cn([C@H](C)C2CC2)c1=O      Cp(f)              nM   11
1  C[C@H](C1CC1)n1cc(C#N)nc(Nc2c(Cl)cc(C(F)(F)F)cc2Cl)c1=O      Cp(f)              nM   16
2  C[C@H](C1CC1)n1cc(Cl)nc(Nc2c(Cl)cc(C(F)(F)F)cc2Cl)c1=O      Cp(f)              nM  6.7
3  C[C@H](C1CC1)n1cc(Cl)nc(Nc2c(Cl)cc(C#N)cc2Cl)c1=O      Cp(f)              nM  2.3
4  C[C@@H](C1CC1)n1cc(Cl)nc(Nc2c(Cl)cc(OC(F)F)cc2Cl)c1=O      Cp(f)              nM  6.1

###

# experiment: Half life in Sprague-Dawley rat 2 mg/kg, iv within 0.17 to 24 hrs
# Type: ADME, organism-based
# Set-up: dose 2 mg/kg, route intravenous
# measurementContext: in vivo
valueType: half-life (h)

>>> df
                            molecularstring  valuetype  val
0  C[C@@H](C1CC1)n1cc(Cl)nc(Nc2c(Cl)cc(OC(F)F)cc2Cl)c1=O  half-life  7.8
1  Cc1cn([C@H](C)C2CC2)c(=O)c(Nc2c(C)cc(Cl)cc2C)n1  half-life   12
2  C[C@H](C1CC1)n1cc(C#N)nc(Nc2c(Cl)cc(OC(F)F)cc2Cl)c1=O  half-life   12
3  C[C@H](C1CC1)n1cc(Cl)nc(Nc2c(Cl)cc(C(F)(F)F)cc2Cl)c1=O  half-life   17

###

// reported bioavailability for each item listed
# experiment: Oral bioavailability in Sprague-Dawley rat at 10 mg/kg dosed as aqueous solution of oleoyl macrogolglyceride/DMAC/polysorbate 80, 85:10:5 within 0.25 to 24 hrs
# Assay type: ADME, organism-based
# measurementContext: Sprague-Dawley, in vivo
valueType: bioavailability (%)

In [3]: df
Out[3]:
                            molecularstring        valuetype  val
0  C[C@H](C1CC1)n1cc(C#N)nc(Nc2c(Cl)cc(OC(F)F)cc2Cl)c1=O  bioavailability   80
1  Cc1cn([C@H](C)C2CC2)c(=O)c(Nc2c(C)cc(Cl)cc2C)n1  bioavailability   10

###

# experiment: AUC in Sprague-Dawley rat at 10 mg/kg, po dosed as aqueous suspension of 1% polysorbate 80 in 0.5% methylcellulose within 0.25 to 24 hrs
# Format: ADME, organism-based
# Set-up: time 0.25-24 hr, dose 10 mg/kg, route oral
# measurementContext: in vivo
valueType: AUC (µM·h)

In [3]: df
Out[3]:
                            molecularstring   val
0  Cc1cn([C@H](C)C2CC2)c(=O)c(Nc2c(C)cc(Cl)cc2C)n1  0.95
1  C[C@H](C1CC1)n1cc(C#N)nc(Nc2c(Cl)cc(OC(F)F)cc2Cl)c1=O   1.9
2  C[C@H](C1CC1)n1cc(Cl)nc(Nc2c(Cl)cc(C(F)(F)F)cc2Cl)c1=O  7.35
3  C[C@@H](C1CC1)n1cc(Cl)nc(Nc2c(Cl)cc(OC(F)F)cc2Cl)c1=O   1.3

###

# Test system: Rattus norvegicus
# experiment: Anxiolytic activity in Sprague-Dawley rat at 10 mg/kg, po assessed as decrease in exit latency after 60 mins by defensive withdrawal test relative to control
# Type: functional
# Parameters: scale not given: the % may be the effect or the level left
valueType: Activity (%)

>>> df
                            molecularstring  unitdescriptor  val
0  C[C@H](C1CC1)n1cc(C#N)nc(Nc2c(Cl)cc(OC(F)F)cc2Cl)c1=O               %   61
1  C[C@H](C1CC1)n1cc(Cl)nc(Nc2c(Cl)cc(C(F)(F)F)cc2Cl)c1=O               %   68
2  C[C@@H](C1CC1)n1cc(Cl)nc(Nc2c(Cl)cc(OC(F)F)cc2Cl)c1=O               %   61
3  COCC(COC)Nc1nc(C)nc2c(-c3ccc(Cl)cc3Cl)c(C)nn12               %   61

###

# experiment: Intrinsic clearance in human liver microsomes at 1 uM
# Type: ADME, Microsome
Entry flag: met if CLint scaled at 1 µM reaches 60 mL/min/kg; not met if it does not.

>>> df
                            molecularstring  answerlabel
0  CC[C@H](C1CC1)n1cc(Cl)nc(Nc2c(C)cc(C)cc2C)c1=O          met
1  Cc1cc(C)c(Nc2nc(Cl)cn([C@H](C)C3CC3)c2=O)c(Cl)c1          met
2  C[C@H](C1CC1)n1cc(Cl)nc(Nc2c(Cl)cc(OC(F)(F)F)cc2Cl)c1=O      not met
3  Cc1cc(Cl)cc(Cl)c1Nc1nc(Cl)cn([C@H](C)C2CC2)c1=O      not met
4  CC[C@H](C1CC1)n1cc(Cl)nc(Nc2c(Cl)cc(OC(F)(F)F)cc2Cl)c1=O          met
5  C[C@@H](C1CC1)n1cc(Cl)nc(Nc2c(Cl)cc(OC(F)F)cc2Cl)c1=O          met
6  COCC(COC)n1cc(Cl)nc(Nc2c(Cl)cc(C(F)(F)F)cc2Cl)c1=O      not met
7  COc1cc(C)c(Nc2nc(Cl)cn([C@H](C)C3CC3)c2=O)cc1OC          met
8  CCCC(CCC)n1cc(Cl)nc(Nc2c(Cl)cc(C(F)(F)F)cc2Cl)c1=O          met

###

# Tested on: Rattus norvegicus
# experiment: Total plasma concentration in Sprague-Dawley rat at 3 mg/kg, po
# Type: ADME, organism-based
# Design: dose 3 mg/kg, route oral
# measurementContext: in vivo
valueType: concentration (nM)

                            molecularstring      valuetype  val
0  C[C@@H](C1CC1)n1cc(Cl)nc(Nc2c(Cl)cc(OC(F)F)cc2Cl)c1=O  concentration  270

Origin of measurements: ChEMBL document CHEMBL1158467
